- Test system: Mycobacterium tuberculosis
- ASSAY_PROCEDURE: Antimicrobial activity against non replicating persistence Mycobacterium tuberculosis H37Rv in anaerobic condition assessed as bacterial density after 10 days
- Format: functional
- CONDITION_CONTEXT: 240 h
REPORTED_METRIC: MIC

Request: Data request, read-out MIC, for CC(=O)NC[C@H]1CN(c2ccc(N3CCOCC3)c(F)c2)C(=O)O1 [LINEZOLID]
Response: > 128 µM

Request: Next compound up: NNC(=O)c1ccncc1 [ISONIAZID]
Response: > 128 µM

Request: Please give the result for CCC[C@@H]1C[C@@H](C(=O)N[C@@H]([C@H]2O[C@H](SC)[C@H](O)[C@@H](O)[C@H]2O)[C@@H](C)O)N(C)C1 [LINCOMYCIN] too.
Response: > 128 µM

Request: // same read-out, input: C[C@]1(Cn2ccnn2)[C@H](C(=O)O)N2C(=O)C[C@H]2S1(=O)=O [TAZOBACTAM]
Response: > 128 µM

Request: Then CO[C@H]1/C=C/O[C@@]2(C)Oc3c(C)c(O)c4c(c3C2=O)C2=NC3(CCN(CC(C)C)CC3)NC2=C(NC(=O)/C(C)=C\C=C\[C@H](C)[C@H](O)[C@@H](C)[C@@H](O)[C@@H](C)[C@H](OC(C)=O)[C@@H]1C)C4=O [RIFABUTIN] ?
Response: ≤ 0.5 µM

Request: Same for CO[C@H]1/C=C/O[C@@]2(C)Oc3c(C)c(O)c4c(O)c(c(/C=N/N5CCN(C)CC5)c(O)c4c3C2=O)NC(=O)/C(C)=C\C=C\[C@H](C)[C@H](O)[C@@H](C)[C@@H](O)[C@@H](C)[C@H](OC(C)=O)[C@@H]1C [RIFAMPIN]
Response: ≤ 0.5 µM

Request: Try the compound Nc1ccc(C(=O)O)c(O)c1 [AMINOSALICYLIC ACID]
Response: > 128 µM

Request: Now give it for COc1c(N2C[C@@H]3CCCN[C@@H]3C2)c(F)cc2c(=O)c(C(=O)O)cn(C3CC3)c12 [MOXIFLOXACIN] too.
Response: ≤ 0.5 µM

Request: # repeat for NCC[C@H](O)C(=O)N[C@@H]1C[C@H](N)[C@@H](O[C@H]2O[C@H](CN)[C@@H](O)[C@H](O)[C@H]2O)[C@H](O)[C@H]1O[C@H]1O[C@H](CO)[C@@H](O)[C@H](N)[C@H]1O [AMIKACIN]
Response: ≤ 0.5 µM

Request: Thanks! And CC[C@@H](CO)NCCN[C@@H](CC)CO [ETHAMBUTOL] ?
Response: > 128 µM

Request: Proceed to CCC[C@@H]1C[C@@H](C(=O)N[C@H](C(C)Cl)[C@H]2O[C@H](SC)[C@H](O)[C@@H](O)[C@H]2O)N(C)C1 (single isomer, unassigned) [CLINDAMYCIN]
Response: > 128 µM
